Target: RORβ LBD (Homo sapiens)
Construct: made in house; host or cells: E. coli BL21DE3 GOLD, pET24a
Sequence (Q92753 201-452 isoform Q92753-1): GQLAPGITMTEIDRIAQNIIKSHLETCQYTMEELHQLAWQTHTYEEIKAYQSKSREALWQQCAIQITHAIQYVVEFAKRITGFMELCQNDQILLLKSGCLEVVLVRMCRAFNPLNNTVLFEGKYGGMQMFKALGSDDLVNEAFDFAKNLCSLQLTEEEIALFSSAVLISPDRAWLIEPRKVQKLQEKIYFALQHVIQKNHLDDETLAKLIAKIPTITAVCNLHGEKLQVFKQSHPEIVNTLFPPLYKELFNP
Test: ThermoFluor binding assay, RORβ LBD
VALUE_KIND: pKd
Numbers only, as −log10 of the molar value.

// fetch pKd given entry CN(C)c1nc2ccc(C(O)(c3ccncc3)c3cncn3C)cc2c(Cl)c1-c1ccccc1 (centres unmarked) [compound D]
5.91

----------
molecular target: RORα LBD (Homo sapiens); construct: made in house; host or cells: E. coli BL21DE3 GOLD, pET24a; test: ThermoFluor binding assay, RORα LBD; details: recombinant human LBD; read-out: ThermoFlour Binding Assay (Kd, nM) RORα
Sequence (P35398 271-523): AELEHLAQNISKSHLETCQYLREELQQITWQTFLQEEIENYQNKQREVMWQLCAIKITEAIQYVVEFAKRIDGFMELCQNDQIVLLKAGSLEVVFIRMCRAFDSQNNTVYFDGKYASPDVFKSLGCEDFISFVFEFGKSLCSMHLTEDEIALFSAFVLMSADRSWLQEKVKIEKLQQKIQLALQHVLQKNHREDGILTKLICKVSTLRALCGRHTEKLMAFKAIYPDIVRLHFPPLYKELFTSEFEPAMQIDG
VALUE_KIND: Kd

{"MOLECULE": "COc1nc2ccc([C@@](O)(c3ccccc3)C3CCN(C(C)=O)CC3)cc2c(Cl)c1Cc1ccc(-n2cccn2)cc1 [C]", "Kd": "> 70000 nM"}

Please examine the following record next.
// fetch Kd given entry COc1nc2ccc([C@@](O)(c3ccc(C)nc3C)c3cnnn3C)cc2c(Cl)c1Cc1ccc(C(F)(F)F)cc1 [compound A]
166 nM

----------
tested on: human CD4 T cells, IFNγ production; experiment: Th1 differentiation assay (IFNγ production); format: cell-based; conditions: Homo sapiens, CD4+ T, 72 h, read-out: Th1 Differentiation (IFNγ production) (IC50, nM)
VALUE_KIND: IC50

Solved entries:
{"MOLECULE": "COc1nc2ccc([C@@](O)(c3ccccc3)C3CCN(C(C)=O)CC3)cc2c(Cl)c1Cc1ccc(-n2cccn2)cc1 [C]", "VALUE_KIND": "IC50", "ENDPOINT_RESULT": "> 240 nM"}
{"MOLECULE": "CN(C)c1nc2ccc(C(O)(c3ccncc3)c3cncn3C)cc2c(Cl)c1-c1ccccc1 (stereo not drawn) [compound D]", "VALUE_KIND": "IC50", "ENDPOINT_RESULT": "> 240 nM"}

Please examine the following record next.
// fetch IC50 given entry COc1nc2ccc([C@](O)(c3ccc(Cl)cc3)c3cncn3C)cc2c(Cl)c1Cc1ccc(-n2cccn2)cc1 [B]
> 240 nM

----------
target: RORγ/γt LBD (Homo sapiens, UniProt P51449); construct: made in house; host or cells: E. coli BL21DE3 GOLD, pET24a; assay: ThermoFluor binding assay, RORγ/γt LBD; conditions: recombinant human LBD; read-out: ThermoFlour Binding Assay (Kd, nM) RORγ/γt
Sequence (P51449 258-518): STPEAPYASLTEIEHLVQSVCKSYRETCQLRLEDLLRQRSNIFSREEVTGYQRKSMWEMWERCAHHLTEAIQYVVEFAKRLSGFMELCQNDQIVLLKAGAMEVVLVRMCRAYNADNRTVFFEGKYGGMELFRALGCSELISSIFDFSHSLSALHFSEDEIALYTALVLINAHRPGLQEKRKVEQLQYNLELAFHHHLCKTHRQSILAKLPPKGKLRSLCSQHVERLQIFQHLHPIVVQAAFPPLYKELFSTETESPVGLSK
VALUE_KIND: Kd (nM)
One number for each entry, in nM.

// fetch Kd given entry COc1nc2ccc([C@@](O)(c3ccccc3)C3CCN(C(C)=O)CC3)cc2c(Cl)c1Cc1ccc(-n2cccn2)cc1
4.4
